Value source: patent US20250333523A1

Record form. Attribute: EC50 of IFNγ release, human NK cells. Fill in for each entry.
- System name: T1, His/Avi-CynoIL18BP (recombinant cynomolgus IL-18BP with His and Avi tags) (cynomolgus monkey)
- T1 chain: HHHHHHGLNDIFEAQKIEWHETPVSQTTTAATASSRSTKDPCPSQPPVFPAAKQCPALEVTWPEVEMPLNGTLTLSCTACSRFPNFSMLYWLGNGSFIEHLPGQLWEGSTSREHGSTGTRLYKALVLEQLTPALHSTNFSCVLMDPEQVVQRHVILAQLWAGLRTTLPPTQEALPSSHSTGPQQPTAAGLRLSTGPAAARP
- Assay summary: cell-based or functional assay
Field note: include the unit after the figure.

The reported EC50 of IFNγ release, human NK cells of the binder anti-IL18BP antibody BP-11 (antibody, human IgG1, V domains shown) VH: QVQLQQSGAELAKPGASVKMSCKASGYTFTNYWMHWVKQRPGQGLEWIGHIDPSTGYTEYNQKFKDKATLTADKSSSTAYMQLSSLTSEDSAVYYCARGLGGLFGYWGQGTLVTVSA VL: DIQMTQSPSSLSASLGGKVTITCKASQDINKFIAWYQHKPGKGPRLLIHHTSTLMPGIPSRFSGSGSGREYSFSISNLEPEDIATYYCLQYDNLLWTFGGGTKLEIR was 37.1 nM

The reported EC50 of IFNγ release, human NK cells of the binder anti-IL18BP antibody BP-16 (antibody, human IgG1, V domains shown) VH: QVQLVQSGAEVKKPGASVKVSCKASGYTFTTYDINWVRQAPGQGLEWMGIIGSYGGATSYAQKFQGRVTMTRDTSTSTVYMELSSLRSEDTAVYYCATAEEELRFDYWGQGTLVTVSS VL: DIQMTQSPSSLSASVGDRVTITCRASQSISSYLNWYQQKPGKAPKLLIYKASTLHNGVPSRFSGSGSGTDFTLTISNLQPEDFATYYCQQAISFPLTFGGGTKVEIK was 8.4 nM

The reported EC50 of IFNγ release, human NK cells of the binder anti-IL18BP antibody BP-01 (antibody, human IgG1, V domains shown) VH: QVQLQQSGPEVVRPGVSVKISCKGSGYTFTDFAMYWVKQSHAKSLEWIGVISTDNGDTSYNQKFKGKATMTVDKSSSTAYMELDRLTSEDSAIYYCARSRGPFDYWGQGTALTVSS VL: DIVMTQSHKFKSTSVGDRVNITCKASQDVGTAVAWYQQKPGQSPKLLIYWASTRHIGVPDRFTGSGSGTDFTLTIRNVQSEDLADYFCQRYSSYPWTFGGGTKLEIK was 12.5 nM

The reported EC50 of IFNγ release, human NK cells of the binder anti-IL18BP antibody BP-04 (antibody, V domains shown, also called BP-04 (hybridoma); BP-04 (parental)) VH: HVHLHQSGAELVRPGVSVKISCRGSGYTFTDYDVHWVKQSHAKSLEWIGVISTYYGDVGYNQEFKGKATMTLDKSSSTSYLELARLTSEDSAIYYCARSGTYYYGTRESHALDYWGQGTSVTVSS VL: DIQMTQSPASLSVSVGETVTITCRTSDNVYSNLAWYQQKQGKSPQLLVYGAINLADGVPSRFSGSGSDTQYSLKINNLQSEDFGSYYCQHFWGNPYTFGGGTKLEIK was 2.41 nM

The reported EC50 of IFNγ release, human NK cells of the binder anti-IL18BP antibody BP-15 (antibody, human IgG1, V domains shown) VH: QVQLVQSGAEVKKPGASVKVSCKASGYTFTTYDINWVRQAPGQGLEWMGIINPSGGSTSYAQKFQGRVTMTRDTSTSTVYMELSSLRSEDTAVYYCATGIGELDFDYWGQGTLVTVSS VL: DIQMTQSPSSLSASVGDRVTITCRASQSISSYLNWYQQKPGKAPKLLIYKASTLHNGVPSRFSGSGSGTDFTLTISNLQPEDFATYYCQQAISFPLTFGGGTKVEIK was 0.000106 nM
